Values were extracted from patent US20240239781A1.

Target: human σ2/TMEM97 receptor (Homo sapiens, UniProt Q5BJF2)
Sequence (Q5BJF2 whole entry): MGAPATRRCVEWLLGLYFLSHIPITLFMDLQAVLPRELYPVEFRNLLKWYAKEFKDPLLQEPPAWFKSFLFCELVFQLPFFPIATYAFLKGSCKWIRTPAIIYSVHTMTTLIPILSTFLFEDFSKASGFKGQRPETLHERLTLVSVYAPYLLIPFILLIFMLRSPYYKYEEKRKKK
Test: Binding assay to human σ2/TMEM97 receptor ([3H]-DTG, transfected HEK-293 membranes)
Conditions: class scale, read-out: Binding σ-2 Ki
metric_name: Ki

> print(dat)
                                    molecule          result
 1  Cn1nc(-c2cc(C3CC3)on2)c(C(=O)N2CCC3(CCN(CCC(C)(C)C)CC3)CC2)c1Cl        < 100 nM
 2  COc1ccc(-c2nn(C)c(Cl)c2CN2CCCCC(NCCC(C)C)C2)nc1 (centres unmarked)       > 1000 nM
 3  Cc1cc(-c2nn(C)c(Cl)c2C(=O)N2CCC[C@H](NCCC(C)C)C2)no1       > 1000 nM
 4  Cc1cc(-c2nn(C)c(Cl)c2CN2CCC3(CCN(Cc4ccccc4)CC3)CC2)no1        < 100 nM
 5  Cc1cc(-c2nn(C)c(Cl)c2C(=O)N2CC3(CCN(CCC(C)(C)C)CC3)C2)no1   100 to 500 nM
 6  CCn1nc(-c2cccc(C(F)(F)F)n2)c(C(=O)N2CCC3(CCN(CCC(C)(C)C)CC3)CC2)c1Cl        < 100 nM
 7  Cc1cc(-c2nn(C)c(Cl)c2CN2CCCCC(NCCc3ccccc3)C2)no1 (centres unmarked)       > 1000 nM
 8  CCc1cc(-c2nn(CC)c(Cl)c2C(=O)NC2CC3(CCN(CCC(C)(C)C)CC3)C2)no1        < 100 nM
 9  Cc1cc(-c2nn(C)c(Cl)c2CN2CCC3(CCN(CCC(C)(C)C)CC3)CC2=O)no1        < 100 nM
10  Cc1cc(-c2nn(C)c(Cl)c2CN2C[C@@H](CNCCC(C)(C)C)[C@H](C)C2)no1        < 100 nM
11  Cc1cc(-c2nn(C)c(Cl)c2CN2CCC3(CCN(CCC(C)C)CC3)CC2)no1        < 100 nM
12  Cn1nc(-c2ccccn2)c(C(=O)N2CCC3(CCN(CCC(C)(C)C)CC3)CC2)c1Cl        < 100 nM
13  CCn1nc(-c2cc(C(C)C)on2)c(C(=O)N2CCC3(CCN(CCC(C)(C)C)CC3)CC2)c1Cl        < 100 nM
14  Cc1cc(-c2nn(C)c(Cl)c2CN2CCC(CNCCc3ccccc3)C2)no1 (centres unmarked)   100 to 500 nM
15  Cc1cc(-c2nn(C)c(Cl)c2CN2CCCC(CNCCC(C)C)C2)no1 (centres unmarked)        < 100 nM
16  Cc1cc(-c2nn(C)c(Cl)c2CN2CCC(CNCC(C)C)CC2)no1  500 to 1000 nM
17  Cc1cc(-c2nn(C)c(Cl)c2C(=O)N2CCCC(CNCCC(C)(C)C)C2)no1 (centres unmarked)        < 100 nM

---

Known pKi of a selection of compounds
Target: human σ2/TMEM97 receptor (Homo sapiens)
Test: Binding assay to human σ2/TMEM97 receptor ([3H]-DTG, transfected HEK-293 membranes)
Conditions: class scale, read-out: Binding σ-2 Ki
pKi: −log10 of the molar value.
metric_name: pKi

> print(dat)
                                    compound        result
 1  Cc1cc(-c2nn(-c3ccccn3)c(Cl)c2C(=O)N2CCC3(CCN(CCC(C)(C)C)CC3)CC2)no1        > 7.00
 2  Cc1cc(-c2nn(C)c(Cl)c2CN2CCCC(NCCC(C)C)CC2)no1 (stereo not shown)        > 7.00
 3  COc1cccc(-c2nn(C)c(Cl)c2C(=O)N2CCC3(CCN(CCC(C)(C)C)CC3)CC2)n1        > 7.00
 4  Cc1cc(-c2nn(C)c(Cl)c2CC(=O)N2CCC3(CCN(CCC(C)C)CC3)CC2)no1        > 7.00
 5  CCCCNC1CCCCN(Cc2c(-c3cc(C)on3)nn(C)c2Cl)C1 (stereo not shown)  6.00 to 6.30
 6  CCn1nc(-c2cccc(C)n2)c(C(=O)NC2CCC3(CC2)CCN(CCC(C)(C)C)CC3)c1Cl        > 7.00
 7  Cc1cc(-c2nn(C)c(Cl)c2CN2CCCC(C3(NCCC(C)C)CC3)C2)no1 (stereo not shown)  6.30 to 7.00
 8  CCc1cc(-c2nn(CC)c(Cl)c2C(=O)NC2CCC3(CC2)CN(CCC(C)(C)C)C3)no1        > 7.00
 9  Cc1onc(-c2nn(C)c(Cl)c2CN2CCCCC(NCCC(C)(C)C)C2)c1C (stereo not shown)  6.30 to 7.00
10  Cc1cc(-c2nn(C)c(Cl)c2CN2CC[C@H](CNCCc3ccccc3)C2)no1  6.30 to 7.00
11  Cc1cc(-c2nn(C)c(Cl)c2C(=O)N2CCC[C@@H](CNCCC(C)C)C2)no1        < 6.00
12  Cc1cc(-c2nn(C)c(Cl)c2CN2CCC3(CCN(CCC(C)(C)C)CC3)C2=O)no1  6.30 to 7.00
13  Cc1cc(-c2nn(C)c(Cl)c2C(=O)N2CC3(CCCN(CCC(C)(C)C)C3)C2)no1  6.30 to 7.00
14  CCn1nc(-c2cc(C)on2)c(CC(=O)NC2CCC3(CC2)CCN(CCC(C)(C)C)CC3)c1Cl        > 7.00
15  Cc1cc(-c2nn(C)c(Cl)c2CN2CC[C@]3(C2)C[C@@H](NCCC(C)(C)C)C3)no1  6.30 to 7.00
16  Cc1cc(-c2nn(C)c(Cl)c2CN2CC3(CCN(CCC(C)(C)C)CC3)CC2=O)no1        > 7.00
